Recorded values, source ChEMBL document CHEMBL3792359.

Test system: Plasma
Assay: Plasma concentration in rhesus monkey at 10 mg/kg, po measured at 0.25 to 2 hrs post dose
Format: ADME, organism-based, Macaca mulatta
Details: in vivo
observed-property: concentration

1) O=C(O)CCC(CP(=O)(O)O)C(=O)O (stereo unspecified) :: 180 nM

====

Tested on: Canis familiaris
Experiment: Cmax in beagle dog assessed as 2-phosphonomethylpentanedioic acid at 10 mg/kg administered via oral gavage measured after 30 mins to 8 hrs by LC/MS/MS analysis
Format: ADME, organism-based, Canis lupus familiaris
Parameters: dose 10 mg/kg, route oral
Conditions: in vivo
observed-property: Cmax (µM)

1) CC(C)OC(=O)OCOC(=O)C(CCC(=O)O)CP(=O)(OCOC(=O)OC(C)C)OCOC(=O)OC(C)C (stereo unspecified) :: 51.1
